Attribution: ChEMBL document CHEMBL1649416

Experiment: Metabolic stability in mouse microsomes assessed as decrease in parent compound level after 30 mins by LC/MS
Format: ADME, Microsome
Details: read-out: Activity
Readout name: metabolised at 0.5 h (%)
Please respond with the number in % and leave the unit unwritten.

Value lookup for metabolised at 0.5 h; key = `Oc1ccc(-c2cc[nH]n2)cc1-c1nc(N[C@H]2CCNC2)c2ccccc2n1`
27

Follow-up entry: `CC(C)(O)[C@@H]1CNC[C@H]1Nc1nc(-c2cc(-c3cc[nH]n3)ccc2O)nc2ccccc12`
22

Follow-up entry: `COCCOc1ccc2c(N[C@H]3CCNC3)nc(-c3cc(F)ccc3O)nc2c1`
25

Follow-up entry: `Oc1ccccc1-c1nc(N[C@H]2CCNC2)c2ccccc2n1`
25

Follow-up entry: `COc1cc2nc(-c3cc(F)ccc3O)nc(N[C@@H]3CNC[C@H]3C(C)(C)O)c2cc1OC`
23

Others:
Value lookup for metabolised at 0.5 h; key = `Oc1ccc(F)cc1-c1nc(N[C@H]2CCNC2)c2ccccc2n1`
27
